# experimental-target: Acetylcholinesterase (Homo sapiens, UniProt P22303)
# Sequence (P22303 whole entry): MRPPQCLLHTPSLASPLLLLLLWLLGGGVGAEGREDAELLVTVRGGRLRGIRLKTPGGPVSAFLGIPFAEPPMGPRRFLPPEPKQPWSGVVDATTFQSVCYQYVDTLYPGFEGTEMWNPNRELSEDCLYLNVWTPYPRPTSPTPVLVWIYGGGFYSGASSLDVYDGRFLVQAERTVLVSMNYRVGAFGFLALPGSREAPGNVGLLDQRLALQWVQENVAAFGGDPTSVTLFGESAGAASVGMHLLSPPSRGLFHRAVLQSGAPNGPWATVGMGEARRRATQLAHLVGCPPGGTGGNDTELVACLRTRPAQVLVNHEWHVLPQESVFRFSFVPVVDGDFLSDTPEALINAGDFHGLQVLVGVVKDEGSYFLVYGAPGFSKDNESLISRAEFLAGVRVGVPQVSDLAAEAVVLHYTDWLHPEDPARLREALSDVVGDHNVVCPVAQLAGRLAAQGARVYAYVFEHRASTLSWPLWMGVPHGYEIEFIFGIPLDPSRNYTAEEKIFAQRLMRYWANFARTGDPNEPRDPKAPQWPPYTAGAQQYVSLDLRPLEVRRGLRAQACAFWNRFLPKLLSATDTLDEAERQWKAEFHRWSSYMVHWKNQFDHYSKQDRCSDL
# assay-text: Inhibition of human […] recombinant AChE after 20 mins using acetylthiocholine iodide as a substrate by Ellman's assay
pIC50: −log10 of the molar value.
readout-type: pIC50

given_smiles=O=C(CCCC[C@H]1CCSS1)NCCCNc1c2c(nc3cc(Cl)ccc13)CCCC2 readout_type=pIC50 test_result=9.33

====

# System: SH-SY5Y
# assay-text: Antioxidant activity in human SH-SY5Y cells assessed as inhibition of tert-butyl hydroperoxide-induced intracellular ROS production at 10 uM after 24 hrs using DCFH-DA by fluorescence assay (reference value: 82.4 +/- 6.6 %)
# Type: functional
# Design: scale not given: the % may be the effect or the level left
readout-type: Activity

molecule="COc1cccc(C(C)N(C)CCCNC(=O)CCCCC2CCSS2)c1 (mixture of isomers)" readout_type=Activity test_result=68.8%
molecule="CCN(CCCCCCNC(=O)CCCCC1CCSS1)Cc1ccccc1OC (racemic)" readout_type=Activity test_result=69.6%
molecule="O=C(CCCCC1CCSS1)NCCCNc1c2c(nc3cc(Cl)ccc13)CCCC2 (racemic)" readout_type=Activity test_result=50%
molecule=O=C(CCCCc1cccs1)NCCCNc1c2c(nc3cc(Cl)ccc13)CCCC2 readout_type=Activity test_result=80.2%
molecule="CC(c1cccc(OCCCNC(=O)CCCCC2CCSS2)c1)N(C)C (mixture of isomers)" readout_type=Activity test_result=48%
molecule="COc1cc2nc(Cl)nc(NCCCNC(=O)CCCCC3CCSS3)c2cc1OC (racemic)" readout_type=Activity test_result=63.4%

Value source: ChEMBL document CHEMBL1909586
